Test system: TNFα
experiment-notes: TNFα secretion by human white blood cells stimulated with PMA/ionomycin, synergy score
Type: cell-based
Design: key: S = Σ Idata(Idata−ILoewe) × ln dilution factors; volume over Loewe additivity
conditions: combination with Betamethasone; PBMC stimulated with PMA/Ionomycin
quantity-measured: Synergy Score based on TNF-α inhibition
# print the numeric value only

Some compounds with recorded Synergy Score based on TNF-α inhibition:
- compound: "CNCCCN1c2ccccc2CCc2ccccc21 [Desipramine]"
  recorded-number: 0.69
- compound: "CNCCCC1c2ccccc2C=Cc2ccccc21 [Protriptyline]"
  recorded-number: 0.53
- compound: "CN(C)CCCN1c2ccccc2CCc2ccccc21 [Imipramine]"
  recorded-number: 0.34
- compound: "CN(C)CCC=C1c2ccccc2CCc2ccccc21 [Amitriptyline]"
  recorded-number: 0.7
- compound: "CN1CCC(=C2c3ccccc3CC(=O)c3sccc32)CC1 [Ketotifen]"
  recorded-number: 0.37
- compound: "CN1CCC(=C2c3ccccc3C=Cc3ccccc32)CC1 [Cyproheptadine]"
  recorded-number: 0.8

Asked: Look at this compound and give its reported Synergy Score based on TNF-α inhibition. CN(C)CCC=C1c2ccccc2C=Cc2ccccc21 [Cyclobenzaprine]
Given back: 0.29

Asked: Look at this compound and give its reported Synergy Score based on TNF-α inhibition. CNCCC=C1c2ccccc2CCc2ccccc21 [Nortriptyline]
Given back: 0.83

Asked: Look at this compound and give its reported Synergy Score based on TNF-α inhibition. Clc1ccc2c(c1)C(N1CCNCC1)=Nc1ccccc1O2 [Amoxapine]
Given back: 0.68

Asked: Look at this compound and give its reported Synergy Score based on TNF-α inhibition. CN(C)CCCN1c2ccccc2CCc2ccc(Cl)cc21 [Clomipramine]
Given back: 0.78

Numbers sourced from patent US20080280862A1.
